system: Plasmodium falciparum; assay: Antiplasmodial activity against chloroquine,pyrimethamine and proguanil resistant blood stage Plasmodium falciparum K1 assessed as reduction in parasite growth incubated for 72 hrs by SYBR Green I fluorescence-based method; assay type: functional, organism-based
VALUE_TYPE: pEC50
Lab note: report pEC50 as minus log10 of the concentration in molar units, number only.

Examples with their reported pEC50 follow.
| GIVEN_SMILES | VALUE_TYPE | VALUE_REPORTED |
| --- | --- | --- |
| Cc1ccc(-c2cc3nc(NC(C)C)[nH]c(=O)c3[se]2)cc1.Cl | pEC50 | 6.11 |
| Cc1ccc(-c2cc3nc(NC(C)(C)C)[nH]c(=O)c3[se]2)cc1.Cl | pEC50 | 6.89 |
| Cc1ccc(-c2cc3nc(NC(C)(C)C)[nH]c(=O)c3o2)cc1 | pEC50 | 6.10 |
| Cc1ccc(-c2cc3nc(NC(C)(C)C)[nH]c(=O)c3o2)cc1.Cl | pEC50 | 6.52 |

Please turn your attention to the following entry.
Given the entry "Cc1ccc(-c2cc3nc(NC(C)(C)C)[nH]c(=O)c3[se]2)cc1" , what pEC50 was observed with Plasmodium falciparum?
5.89
